Recorded cytotoxicity at 70.5 h, one value per entry.
assay: Human HepG2 cell viability assay in 384 well format; type: toxicity, cell-based; parameters: dose 125 nL, time 70.5 hour; concentration not given beside the values; details: HepG2 cells, read-out: Inhibition
METRIC: cytotoxicity at 70.5 h (%)

# COMPOUND, QUANTITY UNIT, NUMERIC RESULT
rows = [
    ("CC(c1ccccn1)N(C)C(=O)CN1CCN(c2ccccn2)CC1 (stereo unspecified)", "%", -11.5),
    ("CCS(=O)(=O)Nc1ccn(Cc2cccc(F)c2)n1", "%", -11.5),
    ("CCOc1ccc(C(=O)Nc2c(C)nc3ccc(Cl)cn3c2=O)cc1", "%", -3.81),
    ("Cc1ccc(-c2cnn(CC(=O)NC(C)C)c2)cc1", "%", -3.29),
    ("Cc1noc(C2CN(CC(=O)NCC3CCCO3)C2)n1 (stereo unspecified)", "%", -3.62),
    ("CCc1ccccc1OCC(=O)Nc1ccnc(OCCN(C)C)c1", "%", 3.03),
    ("Cc1cnccc1CN1C[C@@H](O)[C@H](Oc2cccc(F)c2)C1", "%", -3.81),
    ("CCOC(=O)[C@H]1[C@@H](O)C(=O)N(C)C12CCN(S(=O)(=O)CC)CC2", "%", -10.3),
    ("c1ccc(-c2nccc(CNCC3CCCN3c3cccnn3)n2)cc1 (stereo unspecified)", "%", 39.7),
    ("COc1cc(C)ccc1S(=O)(=O)N1CC[C@](C)(O)[C@H](C)C1", "%", -5.97),
    ("CC(C)c1nccc(CN2CCCC(O)(CN(C)C)C2)n1 (stereo unspecified)", "%", 15),
]

###

test: Human HepG2 cell viability assay in 384 well format; format: toxicity, cell-based; set-up: dose 125 nL, time 70.5 hour; concentration not given beside the values; conditions: HepG2 cells, read-out: Inhibition
Recorded cytotoxicity at 70.5 h, one value per entry.

# COMPOUND, cytotoxicity at 70.5 h (%)
rows = [
    ("Cc1ccccc1N1CCCN(c2ccncn2)CC1", 2.64),
    ("CC1(C)CN=C(N2CCN(CC3CCCCO3)CC2)S1 (configuration not stated)", 0.00251),
    ("CCCn1cc(C(=O)N2CCCC2(C)c2nc(C)cc(C)n2)cn1 (configuration not stated)", -13.9),
    ("CCCc1cc(=O)[nH]c2nnc(SCC(N)=O)n12", 23.3),
    ("Cc1ccc(C(=O)Nc2ccc(N3CCCC3)cn2)cc1C", 0.417),
    ("Cc1ccc2c(n1)N(CCn1cccn1)CCN(C1CCOCC1)C2", -5.52),
    ("O=C([C@H]1CCCO1)N1CCCC2(COCCN(c3ccccc3)C2)C1 (some centres not stated)", -10.4),
    ("Cc1cccn2c(=O)cc(CN3CCCC3Cn3cncn3)nc12 (configuration not stated)", -5.2),
    ("Cc1noc(C)c1CN1CC[C@H](OCC2CC2)[C@@H](Cc2ccccc2)C1", 3.46),
    ("COCC1CN(CC2CCOCC2)Cc2cn(CC3CCCC3)nc21 (configuration not stated)", -7.67),
    ("CC(C)c1nccn1CCCNC(=O)c1ccc(-c2ccncc2)nc1", 17.9),
    ("NC(=O)C1CCN(Cc2csc(-c3ncccn3)n2)CC1", 18.7),
    ("N#Cc1cccc(CN2CC[C@@H]3[C@@H]2CC(=O)N3Cc2ccncc2)c1", -3.67),
    ("Cc1ccc(CN2CCCC3(CCN(Cc4ccc(C)o4)C3)C2)o1 (configuration not stated)", -11.5),
    ("CC(C)S(=O)(=O)C(C)C(=O)NCc1cccc(N2CCCCC2=O)c1 (configuration not stated)", 13.6),
    ("Cn1ccc(CN2CCC(COC3CCCC3)CC2)cc1=O", -11),
    ("CC(C)CN(Cc1ccc(O)c(C(=O)O)c1)Cc1ccccn1", 5.47),
    ("O=C(CCn1cccn1)NCC(c1cccs1)N1CCCC1 (configuration not stated)", -5.3),
    ("CC(C)NC(=O)[C@H]1C[C@@H]2[C@@H](C1)OCCN2Cc1ccncc1", -7.54),
    ("CN(CCSc1nncn1C(C)(C)C)c1ccccc1", 31),
    ("Cc1cc(C(=O)NCc2cccnc2N2CCCC(O)C2)c(C)o1 (configuration not stated)", -8.63),
    ("O=C(NCc1cn2c(n1)SCC2)c1ccc(CN2CCCCC2)cc1", 2.13),
    ("CN(Cc1ccsc1)C(=O)c1n[nH]c(N)c1-c1ccccc1", -1.37),
    ("CCOCCN1CCN(CCc2ccc3c(c2)CCO3)CC1", 12.7),
    ("CCCn1ncnc1C(C)NC(=O)C1CCN(C(=O)C2CC2)CC1 (configuration not stated)", -3.95),
    ("CCNC(=O)N1C[C@@H]2OCC(=O)N(C(C)C)[C@@H]2C1", -0.389),
    ("CN(C)C(=O)N1CCCn2nc(CNC(=O)CCc3ccsc3)cc2C1", -9.25),
    ("COCCN(CCOC)C(=O)c1cc(F)cc2[nH]cnc12", -4.53),
    ("CCc1nc(C(=O)N(C)CC(=O)N(C)C)nn1-c1ccccc1Cl", 27.7),
    ("COc1cccc(CN2CCCC(c3nn(C)c4nccnc34)C2)c1 (configuration not stated)", 14.8),
    ("CCCc1nnc(NC(=O)NC2CCOc3ccccc32)s1 (configuration not stated)", -4.65),
    ("COc1ccccc1CC(=O)N1CCCC1Cn1nc(C)cc1C (configuration not stated)", -2.44),
    ("CN1CC(=O)N(c2cnn(C)c2)CC12CCN(Cc1cccnc1)C2 (configuration not stated)", 0.303),
    ("Cc1cc(CN2CCc3nc(-c4ccncc4)nc(O)c3CC2)c(C)s1", -7.8),
    ("Cc1ncsc1C(=O)NCCNC(=O)c1cccs1", -3.7),
    ("CN1CCN(C(=O)[C@H]2CC[C@@H]3[C@@H](CCN3Cc3nccs3)O2)CC1", -13.2),
    ("Cc1cc(C)c(CCNC(=O)CN2CCCN(C(N)=O)CC2)c(C)c1", 15.4),
    ("CN(C)CC1(O)CCN(S(=O)(=O)c2cccc(F)c2)C1 (configuration not stated)", -4.11),
    ("CCOc1ccc(C(=O)N2CCCC2c2cnn(C)c2)cn1 (configuration not stated)", -5.51),
    ("CCN(CC)C(=O)[C@@H]1C[C@@H](N)CN1c1nc(N2CCCC2)nc(C)c1C", 25.5),
    ("Cc1cc(F)ccc1CNCc1cccc(C(=O)N2CCCC2)c1", -1.53),
    ("CCC(=O)N1CCC(c2nc(C)ncc2-c2ccncc2)CC1", -7.07),
    ("COc1cccc(CCNC(=O)CCS(=O)(=O)C2CCCC2)c1", -12.4),
    ("O=C(NCCNc1ncccn1)C1CC(=O)N(CC(F)(F)F)C1 (configuration not stated)", -14.3),
    ("CN(C)CCN1CCC(CNCc2c[nH]nc2C(C)(C)C)CC1", 28.4),
    ("Cc1nc(O)ccc1C(=O)N1CCCC1c1nc(-c2ccccc2)n[nH]1 (configuration not stated)", 0.447),
    ("CC(Oc1ccc(F)cc1F)C(=O)N1CCC2(CC1)CC(=O)N(C)C2 (configuration not stated)", 27.3),
]

###

Recorded cytotoxicity at 70.5 h, one value per entry.
assay: Human HepG2 cell viability assay in 384 well format; type: toxicity, cell-based; parameters: dose 125 nL, time 70.5 hour; concentration not given beside the values; details: HepG2 cells, read-out: Inhibition
METRIC: cytotoxicity at 70.5 h

# COMPOUND, RESULT
data = [
    ("COCCn1ccc(=O)c(OCC(=O)Nc2ccc(OC)c(Cl)c2)c1C", "-5.11%"),
    ("Cc1cnc(C)c(N2CCCC(C/C=C/c3ccccc3)(C(=O)O)C2)n1 (centres undefined)", "-7.68%"),
    ("O=C(C1CCOC1)N1CCC(OCc2ccccc2)CC1 (centres undefined)", "-5.49%"),
    ("Cc1cccnc1CCNC(=O)[C@@]12CNC[C@@H]1CN(S(C)(=O)=O)C2", "-1.74%"),
    ("CCCc1cc(C(=O)N2CCC3(CC2)CN(CCN(C)C)C(=O)O3)no1", "-0.0862%"),
    ("Cc1cccc(C(=O)NCc2ccc(S(N)(=O)=O)cc2)n1", "-12.2%"),
    ("Cc1cc(O)n(-c2ccc3nnc(C)n3n2)n1", "-19.5%"),
    ("Cc1cccn2c(=O)cc(OC(=O)c3ccccc3)nc12", "-17.1%"),
    ("CCc1nccn1C1CCCN(C(=O)c2cnn3cccnc23)C1 (centres undefined)", "27.7%"),
    ("Cc1n[nH]c(C)c1NC(=O)CN(CC(O)c1ccc(F)cc1)C1CC1 (centres undefined)", "-3.36%"),
    ("Nc1cccnc1N1CCC(O)CC1", "-1.82%"),
    ("O=C(Nc1ccccn1)c1ccc(F)c(S(=O)(=O)NC2CC2)c1", "-16.8%"),
    ("Cc1ccn(CCC(=O)NCc2ccc(C)o2)n1", "-1.65%"),
    ("CC(C)(C)OC(=O)NCCNC(=O)c1ccc(-c2ccco2)[nH]c1=O", "-0.98%"),
    ("Cn1cnc2c1C(COCc1cccnc1)N(Cc1ccccc1)CC2 (centres undefined)", "2.08%"),
    ("COc1ccc(C)cc1NC(=O)Cn1nc(C)c(C#N)c1N", "-5.55%"),
    ("CC(C)[C@@H]1CN(Cc2cnc(C3CCCCC3)nc2)C[C@H]1C(=O)O", "8.1%"),
    ("CN1CCC(N2CCOC3(CCCC3)C2)C1=O (centres undefined)", "5.41%"),
    ("CCCOC1CCCN(C(=O)c2ccc(S(N)(=O)=O)cc2)C1 (centres undefined)", "-3.49%"),
    ("O=C(NCC1CC1)[C@H]1C[C@@H]2CN(S(=O)(=O)Cc3ccccc3)C[C@H]1O2", "18.9%"),
    ("COc1ccccc1C(O)CNc1c(C#N)c(=O)n(C)c(=O)n1C (centres undefined)", "-0.895%"),
    ("Cc1ccc(C)c(CN2CCOC(c3noc(C)n3)C2)c1 (centres undefined)", "-4.49%"),
    ("CC(C)c1noc(C2CCCN2S(=O)(=O)N2CCCCCC2)n1 (centres undefined)", "-6.79%"),
    ("O=C(O)CCc1cc2n(n1)CCN(Cc1ccc3[nH]ccc3c1)C2", "-2.66%"),
]
